system tested: UniProt P34998
Sequence (P34998 whole entry): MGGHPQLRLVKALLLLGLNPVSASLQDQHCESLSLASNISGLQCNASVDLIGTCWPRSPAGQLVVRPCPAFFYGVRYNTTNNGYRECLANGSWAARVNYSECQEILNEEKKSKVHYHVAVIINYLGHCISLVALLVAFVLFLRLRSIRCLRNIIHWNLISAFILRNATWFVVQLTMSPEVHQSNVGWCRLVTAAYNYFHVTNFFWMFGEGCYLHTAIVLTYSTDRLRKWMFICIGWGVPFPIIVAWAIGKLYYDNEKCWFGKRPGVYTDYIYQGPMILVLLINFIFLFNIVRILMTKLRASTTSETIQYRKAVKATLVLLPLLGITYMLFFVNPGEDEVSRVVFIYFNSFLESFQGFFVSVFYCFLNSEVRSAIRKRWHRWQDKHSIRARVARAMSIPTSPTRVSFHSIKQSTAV
protocol description: Displacement of [125I]-CRF from human CRF1 receptor expressed in HEK293 cells after 2 hrs by scintillation proximity assay
Type: cell-based
# Lookup of reported IC50 keyed by entry

- substance smiles: "COCc1cc(OC)c(Oc2nc3cccc(N(CC4CC4)C4CCOCC4)c3cc2C)c(OC)c1"
  sign: "="
  IC50, nM: 157
- substance smiles: "CCCN(CCC)c1cccc2nc(Nc3c(C)cc(C)cc3C)c(=O)n(C)c12"
  sign: "="
  IC50, nM: 672
- substance smiles: "Cc1cc(C)c(Nc2nc3cccc(N(CC4CC4)C4CCOCC4)c3cc2C)c(C)c1"
  sign: "="
  IC50, nM: 90
- substance smiles: "CCCN(CCC)c1cccc2nc(Oc3c(C)cc(C)cc3C)c(C)cc12"
  sign: "="
  IC50, nM: 79
- substance smiles: "CCCN(CCC)c1cccc2nc(Nc3c(OC)cc(COC)cc3OC)c(C)cc12"
  sign: "="
  IC50, nM: 472
- substance smiles: "CCN(c1cccc2nc(Oc3c(OC)cc(COC)cc3OC)c(C)cc12)C1CCOCC1"
  sign: "="
  IC50, nM: 323
- substance smiles: "CCCC(CCC)Nc1cccc2nc(Nc3c(C)cc(C)cc3C)c(C)nc12"
  sign: "="
  IC50, nM: 197
- substance smiles: "CCCN(CCC)c1cccc2nc(Nc3c(C)cc(C)cc3C)c(=O)[nH]c12"
  sign: "="
  IC50, nM: 100
- substance smiles: "COCc1cc(OC)c(Oc2nc3cccc(NC4CCCCC4)c3cc2C)c(OC)c1"
  sign: ">"
  IC50, nM: 1000
- substance smiles: "CCCN(CCC)c1cccc2nc(Nc3c(OC)cc(OC)cc3OC)c(C)cc12"
  sign: ">"
  IC50, nM: 1000

----------
system tested: Corticotropin-releasing factor receptor 1 (Homo sapiens, UniProt P34998)
protocol description: Displacement of [125I]-CRF from human CRF1 receptor expressed in HEK293 cells after 2 hrs by scintillation proximity assay
Type: cell-based
Just a reminder that ties go to 0: only IC50 strictly below 200 nM counts as 1.

- substance smiles: "CCN(CC1CCOCC1)c1cccc2nc(Oc3c(OC)cc(COC)cc3OC)c(C)cc12"
  label class: 0
- substance smiles: "CCCN(CCC)c1cccc2nc(Nc3c(C)cc(C)cc3C)c(C)nc12"
  label class: 1
- substance smiles: "CCC(CC)Nc1cccc2nc(Oc3c(OC)cc(COC)cc3OC)c(C)cc12"
  label class: 0
- substance smiles: "COCc1cc(OC)c(Oc2nc3cccc(N(CC4CCOCC4)CC4CC4)c3cc2C)c(OC)c1"
  label class: 0
- substance smiles: "CCCN(CCC)c1cccc2nc(Oc3c(OC)cc(COC)cc3OC)c(C)cc12"
  label class: 1
- substance smiles: "CCCN(CCC)c1cccc2nc(Nc3c(C)cc(C)cc3C)c(C)cc12"
  label class: 1

----------
system tested: Corticotropin-releasing factor receptor 1 (Homo sapiens, UniProt P34998)
Sequence (P34998 whole entry): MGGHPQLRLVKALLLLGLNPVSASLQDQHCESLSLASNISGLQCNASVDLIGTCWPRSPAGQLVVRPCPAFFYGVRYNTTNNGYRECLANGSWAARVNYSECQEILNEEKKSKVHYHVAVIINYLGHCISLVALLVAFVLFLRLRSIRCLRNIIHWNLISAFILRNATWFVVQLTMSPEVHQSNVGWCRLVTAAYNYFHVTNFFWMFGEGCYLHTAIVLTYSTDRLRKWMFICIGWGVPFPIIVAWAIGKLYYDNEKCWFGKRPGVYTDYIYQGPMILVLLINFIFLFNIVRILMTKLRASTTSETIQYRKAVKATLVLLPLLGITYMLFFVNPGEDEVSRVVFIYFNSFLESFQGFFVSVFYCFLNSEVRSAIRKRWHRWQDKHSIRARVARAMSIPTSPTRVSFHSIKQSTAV
protocol description: Antagonist activity at human CRF1 receptor expressed in HEK293 cells assessed as inhibition of CRF-stimulated intracellular cAMP accumulation preincubated for 30 mins measured after 30 mins by enzyme immunoassay
Assay type: functional, cell-based
pIC50: −log10 of the molar value.

- substance smiles: "CCN(CC)c1cccc2nc(Oc3c(OC)cc(COC)cc3OC)c(C)cc12"
  pIC50: 6.78
- substance smiles: "CCCN(CCC)c1cccc2nc(Oc3c(OC)cc(COC)cc3OC)c(C)cc12"
  pIC50: 6.79
- substance smiles: "CCCN(CCC)c1cccc2nc(Nc3c(C)cc(C)cc3C)c(C)nc12"
  pIC50: 6.25
- substance smiles: "CCCN(CCC)c1cccc2nc(Nc3c(C)cc(C)cc3C)c(C)cc12"
  pIC50: 6.43
- substance smiles: "Cc1cc(C)c(Nc2nc3cccc(N(CC4CC4)C4CCOCC4)c3cc2C)c(C)c1"
  pIC50: 6.59
- substance smiles: "CCCN(CCC)c1cccc2nc(Nc3c(C)cc(C)cc3C)c(=O)[nH]c12"
  pIC50: 6.33

----------
system tested: Corticotropin-releasing factor receptor 1 (Homo sapiens)
protocol description: Displacement of [125I]-CRF from human CRF1 receptor expressed in HEK293 cells after 2 hrs by scintillation proximity assay
Type: cell-based
pIC50: −log10 of the molar value.

- substance smiles: "CCN(Cc1ccncc1)c1cccc2nc(Oc3c(OC)cc(COC)cc3OC)c(C)cc12"
  sign: "<"
  pIC50: 6.00
- substance smiles: "Cc1cc(C)c(Nc2nc3cccc(N(CC4CCOCC4)CC4CC4)c3cc2C)c(C)c1"
  sign: "="
  pIC50: 6.13
- substance smiles: "CCCN(CCC)c1cccc2nc(N(C)c3c(C)cc(C)cc3C)c(=O)n(C)c12"
  sign: "<"
  pIC50: 6.00
- substance smiles: "CCN(CC)c1cccc2nc(Oc3c(OC)cc(COC)cc3OC)c(C)cc12"
  sign: "="
  pIC50: 7.15
- substance smiles: "Cc1cc(C)c(Nc2nc3cccc(N(CC4CC4)CC4CC4)c3cc2C)c(C)c1"
  sign: "="
  pIC50: 7.12

Source listed as ChEMBL document CHEMBL2046315.
